System: Saccharomyces cerevisiae
experimental protocol: Antimicrobial activity against Saccharomyces cerevisiae BY4741 after 24 hrs by broth microdilution method
Type: functional
assay context: BY4741, 24 h
MIC listing for selected compounds.

// below: answered compounds
C=C(C)C(O)Cc1c(O)c(C(=O)[C@@H](C)CC)c2oc3c4c(c(C(=O)[C@@H](C)CC)c(O)c3c2c1O)OC(C)(C)C=C4 (some centres undefined); > 128 µM
CCc1oc(=O)c(Cc2c(O)c(CC=C(C)C)c(O)c(C(=O)[C@@H](C)CC)c2O)c(O)c1C; > 128 µM
COc1c(-c2ccccc2)oc2c(OC)c(O)cc(O)c2c1=O; > 128 µM

// recorded MIC for CCc1oc(=O)c(Cc2c(O)c3c(c(C(=O)[C@@H](C)CC)c2O)OC(C)(C)[C@@H](O)C3)c(O)c1C : > 128 µM

----------
Test system: Staphylococcus aureus
experimental protocol: Antimicrobial activity against methicillin-resistant and vancomycin-intermediate Staphylococcus aureus NRS402 after 24 hrs by broth microdilution method
Assay type: functional
assay context: NRS402, 24 h
MIC overview
Enter your answer as a number in µM; do not include the unit.

CC1(C)S[C@@H]2[C@H](NC(=O)[C@H](N)c3ccccc3)C(=O)N2[C@H]1C(=O)O; 120

Short answer for CCc1oc(=O)c(Cc2c(O)c(CC=C(C)C)c(O)c(C(=O)[C@@H](C)CC)c2O)c(O)c1C : MIC was 8

Measured MIC, CCc1oc(=O)c(Cc2c(O)c3c(c(C(=O)[C@@H](C)CC)c2O)OC(C)(C)C=C3)c(O)c1C : 64

GET /value?item= NC[C@H]1O[C@H](O[C@H]2[C@H](O)[C@@H](O[C@H]3O[C@H](CO)[C@@H](O)[C@H](N)[C@H]3O)[C@H](N)C[C@@H]2N)[C@H](O)[C@@H](O)[C@@H]1O &field=MIC returns 240

The compound CCc1oc(=O)c(Cc2c(O)c3c(c(C(=O)[C@@H](C)CC)c2O)OC(C)(C)C(Br)=C3)c(O)c1C showed MIC equal to 8

Lab note: measured MIC of CCc1[nH]c(=O)c(Cc2c(O)c3c(c(C(=O)[C@@H](C)CC)c2O)OC(C)(C)C=C3)c(O)c1C was 32

----------
Tested on: Saccharomyces cerevisiae
experimental protocol: Antimicrobial activity against Saccharomyces cerevisiae BY4741 after 24 hrs by broth microdilution method
Assay type: functional
assay context: BY4741, 24 h
property label: MIC

C=C(C)C(O)Cc1c(O)c(C(=O)C(C)CC)c(O)c2c1oc1c(C(=O)C(C)CC)c(O)c(CC=C(C)C)c(O)c12 (stereo not drawn) [ACHYROFURAN]; > 128 µM
C=C(C)[C@@H]1Cc2c(O)c(Cc3c(O)c(C)c(CC)oc3=O)c(O)c(C(=O)[C@@H](C)CC)c2O1; > 128 µM

# next compound below
Form field MIC, entry CCc1oc(=O)c(Cc2c(O)c3c(c(C(=O)[C@@H](C)CC)c2O)OC(C)(C)C=C3)c(O)c1C : > 128 µM

----------
System: Staphylococcus aureus
experimental protocol: Antimicrobial activity against methicillin-resistant and vancomycin-intermediate Staphylococcus aureus NRS402 after 24 hrs by broth microdilution method
Assay type: functional
assay context: NRS402, 24 h
property label: MIC

C=C(C)[C@@H]1Cc2c(O)c(Cc3c(O)c(C)c(CC)oc3=O)c(O)c(C(=O)[C@@H](C)CC)c2O1; 64 µM
CCc1oc(=O)c(Cc2c(OC(C)=O)c3c(c(C(=O)[C@@H](C)CC)c2OC(C)=O)OC(C)(C)C=C3)c(OC(C)=O)c1C; > 128 µM
C=C(C)C(O)Cc1c(O)c(C(=O)[C@@H](C)CC)c2oc3c4c(c(C(=O)[C@@H](C)CC)c(O)c3c2c1O)OC(C)(C)C=C4 (stereo partly drawn); 32 µM
CCc1oc(OC)c(Cc2c(O)c3c(c(C(=O)[C@@H](C)CC)c2O)OC(C)(C)C=C3)c(=O)c1C; > 128 µM
CCc1oc(OC)c(Cc2c(O)c(C(=O)[C@@H](C)CC)c3c(c2OC)C=CC(C)(C)O3)c(=O)c1C; > 128 µM
COc1c(-c2ccccc2)oc2c(OC)c(O)cc(O)c2c1=O [GNAPHALIIN]; > 128 µM
CCc1oc(=O)c(Cc2c(O)c(CCC(C)C)c(O)c(C(=O)[C@@H](C)CC)c2O)c(O)c1C; 4 µM

Turning now to a further compound:
Briefly, MIC measured for CCc1oc(=O)c(Cc2c(O)c(C(=O)[C@@H](C)CC)c3c(c2O)C2OC2C(C)(C)O3)c(O)c1C (stereo partly drawn) : > 128 µM

----------
MIC values by entry
Test system: Staphylococcus aureus
experimental protocol: Antimicrobial activity against methicillin-resistant and vancomycin-intermediate Staphylococcus aureus NRS402 after 24 hrs by broth microdilution method
Assay type: functional
assay context: NRS402, 24 h

Examples with answers:
CCc1oc(=O)c(Cc2c(O)c3c(c(C(=O)[C@@H](C)CC)c2O)OC(C(C)(C)O)C3)c(O)c1C (stereo not given in full); > 128 µM
CCc1oc(=O)c(Cc2c(O)c(C(=O)[C@@H](C)CC)c3c(c2OC)C=CC(C)(C)O3)c(OC)c1C; > 128 µM
CCc1oc(=O)c(Cc2c(O)c3c(c(C(=O)[C@@H](C)CC)c2O)OC(C)(C)[C@@H](O)C3)c(O)c1C; > 128 µM
C=C(C)C(O)Cc1c(O)c(C(=O)C(C)CC)c(O)c2c1oc1c(C(=O)C(C)CC)c(O)c(CC=C(C)C)c(O)c12 (stereo not given); < 1 µM

// next entry
Measured MIC, CCc1oc(=O)c(Cc2c(O)c3c(c(C(=O)[C@@H](C)CC)c2O)OC(C)(C)CC3)c(O)c1C : > 128 µM
